Measurement Description: Drug concentration in tibia of Sprague-Dawley rat assessed as accumulation in synovial membrane of tibial plateau at 250 ug, IART measured for 168 hrs by LC-MS/MS analysis
Type: ADME
Test Settings: dose 250 µg, read-out: Ct
Recorded Metric: concentration at 168 h (µM)
Numbers only; they are read as µM.

Look up concentration at 168 h: `CN1Cc2cc(-c3cc(-c4cccc(C(N)=O)c4)no3)c(O[C@H]3CC[C@@H](O)CC3)cc2C1=O`
631

====

Listed below: solubility thermodynamic at 20 h values for each entry.
Measurement Description: Thermodynamic solubility in simulated synovial fluid containing PBS/BSA incubated for 20 hrs by HPLC-HRMS analysis
Assay type: physicochemical
Test Settings: read-out: Therm_solubility

# Chem Smiles, solubility thermodynamic at 20 h
data = [
    ("NC(=O)c1cccc(-c2cc(-c3cccnc3O[C@H]3CC[C@@H](O)CC3)on2)n1", "4.5 µM"),
    ("CNC(=O)CNc1ccc(-c2cc(-c3cccc(C(N)=O)n3)no2)c(O[C@H]2CC[C@@H](O)CC2)n1", "2.2 µM"),
]

# input compound: `CN(C)C(=O)c1ccc(-c2cc(-c3cccc(C(N)=O)n3)no2)c(O[C@H]2CC[C@@H](O)CC2)n1` ; wanted: its solubility thermodynamic at 20 h
2.9 µM

Ok, now `CN(C)C(=O)CNc1ccc(-c2cc(-c3cccc(C(N)=O)n3)no2)c(O[C@H]2CC[C@@H](O)CC2)n1`
2 µM

Thanks! And `CN(C)C(=O)c1ccc(-c2cc(-c3cccc(C(N)=O)c3)no2)c(O[C@H]2CC[C@@H](O)CC2)n1` ?
12 µM

Try this compound too: `NC(=O)c1cccc(-c2cc(-c3ccc(N)nc3O[C@H]3CC[C@@H](O)CC3)on2)n1`
15 µM

And `CN(C)C(=O)c1ccc(-c2cc(-c3cccc(C(N)=O)c3)no2)c(O[C@H]2CC[C@@H](O)CC2)c1` ?
10 µM

Query `CC(=O)Nc1ccc(-c2cc(-c3cccc(C(N)=O)n3)no2)c(O[C@H]2CC[C@@H](O)CC2)n1` next
0.2 µM

Please do the same for `CN1Cc2cc(-c3cc(-c4cccc(C(N)=O)c4)no3)c(O[C@H]3CC[C@@H](O)CC3)cc2C1=O` as well.
1.8 µM

Okay, and `NC(=O)c1cccc(-c2cc(-c3ccc(NCC(=O)N4CCS(=O)(=O)CC4)nc3O[C@H]3CC[C@@H](O)CC3)on2)n1` ?
0.13 µM

Repeat for the following compound: `CNc1ccc(-c2cc(-c3cccc(C(N)=O)n3)no2)c(O[C@H]2CC[C@@H](O)CC2)n1`
1 µM

====

Measurement Description: Protein binding in bovine synovial fluid assessed as unbound fraction at 5 uM incubated for 4 hrs by rapid equilibrium dialysis
Type: ADME, tissue-based, Bos taurus
Test Settings: cattle
Label key: Yes means fraction unbound at 4 h, 5 µM under 0.09; No means fraction unbound at 4 h, 5 µM of 0.09 or more.

Use these answered entries as a reference point.
# Chem Smiles, Classification
measured = [
    ("CN(C)C(=O)CNc1ccc(-c2cc(-c3cccc(C(N)=O)n3)no2)c(O[C@H]2CC[C@@H](O)CC2)n1", "No"),
    ("CN1Cc2cc(-c3cc(-c4cccc(C(N)=O)c4)no3)c(O[C@H]3CC[C@@H](O)CC3)cc2C1=O", "No"),
    ("CNc1ccc(-c2cc(-c3cccc(C(N)=O)n3)no2)c(O[C@H]2CC[C@@H](O)CC2)n1", "Yes"),
    ("NC(=O)c1cccc(-c2cc(-c3ccc(NCC(=O)N4CCS(=O)(=O)CC4)nc3O[C@H]3CC[C@@H](O)CC3)on2)n1", "No"),
]

Please look at the following compound next.
Is it true that fraction unbound at 4 h, 5 µM reported for `NC(=O)c1cccc(-c2cc(-c3cccnc3O[C@H]3CC[C@@H](O)CC3)on2)n1` is less than 0.09?
Yes

====

Measurement Description: Drug concentration in plasma of Sprague-Dawley rat at 50 ug, IART measured for 168 hrs by LC-MS/MS analysis
Assay type: ADME, cell-free
Test Settings: dose 50 µg
Recorded Metric: concentration at 168 h

Need concentration at 168 h of `NC(=O)c1cccc(-c2cc(-c3cccnc3O[C@H]3CC[C@@H](O)CC3)on2)n1` , thanks.
< 0.1 µM

====

Measurement Description: Solubility in simulated synovial fluid
Format: physicochemical
Recorded Metric: solubility (µM)
Report the figure in µM without appending any unit label.

# get_value(readout='solubility', item= `CC(C)CC(=O)Nc1cncc(-c2ccc3[nH]nc(-c4nc5c(-c6cccc(F)c6)cncc5[nH]4)c3c2)c1` )
0.8

====

Each item that follows carries a reported EC50.
Measurement Description: Inhibition of MMP3 production in human C20/A4 cells by Nano-Glo HiBit assay
Test Settings: C20/A4, read-out: pEC50 (converted)
Please don't drop the unit; write it after the number.

Previously resolved entries follow.
# Chem Smiles, EC50
data = [
    ("COc1ccc(-c2cc(-c3cccc(C(N)=O)n3)no2)c(O[C@H]2CC[C@@H](O)CC2)n1", "126 nM"),
    ("CN1Cc2cc(-c3cc(-c4cccc(C(N)=O)c4)no3)c(O[C@H]3CC[C@@H](O)CC3)cc2C1=O", "79.4 nM"),
    ("CN(C)C(=O)CNc1ccc(-c2cc(-c3cccc(C(N)=O)n3)no2)c(O[C@H]2CC[C@@H](O)CC2)n1", "126 nM"),
    ("CNC(=O)CNc1ccc(-c2cc(-c3cccc(C(N)=O)n3)no2)c(O[C@H]2CC[C@@H](O)CC2)n1", "50.1 nM"),
    ("CN(C)C(=O)c1ccc(-c2cc(-c3cccc(C(N)=O)c3)no2)c(O[C@H]2CC[C@@H](O)CC2)n1", "200 nM"),
]

Entry `CN(C)C(=O)c1ccc(-c2cc(-c3cccc(C(N)=O)c3)no2)c(O[C@H]2CC[C@@H](O)CC2)c1` has what EC50?
158 nM

Entry to check: `NC(=O)c1cccc(-c2cc(-c3cccnc3O[C@H]3CC[C@@H](O)CC3)on2)n1`
158 nM

Continue with `CNc1ccc(-c2cc(-c3cccc(C(N)=O)n3)no2)c(O[C@H]2CC[C@@H](O)CC2)n1`
63.1 nM

Can you handle `CC(=O)Nc1ccc(-c2cc(-c3cccc(C(N)=O)n3)no2)c(O[C@H]2CC[C@@H](O)CC2)n1` next?
501 nM

Continue with `NC(=O)c1cccc(-c2cc(-c3ccc(N)nc3O[C@H]3CC[C@@H](O)CC3)on2)n1`
63.1 nM

Lookup `CN(C)C(=O)c1ccc(-c2cc(-c3cccc(C(N)=O)n3)no2)c(O[C@H]2CC[C@@H](O)CC2)n1`
126 nM

// same read-out, input: `NC(=O)c1cccc(-c2cc(-c3ccc(NCC(=O)N4CCS(=O)(=O)CC4)nc3O[C@H]3CC[C@@H](O)CC3)on2)n1`
251 nM

====

Measurement Description: Partition coefficient, logP of compound in octanol/water
Format: physicochemical
Recorded Metric: logP
Give the value as a plain number.

Example results:
# Chem Smiles, logP
data = [
    ("NC(=O)c1cccc(-c2cc(-c3cccnc3O[C@H]3CC[C@@H](O)CC3)on2)n1", 3.8),
    ("CN(C)C(=O)c1ccc(-c2cc(-c3cccc(C(N)=O)n3)no2)c(O[C@H]2CC[C@@H](O)CC2)n1", 3),
    ("CN1Cc2cc(-c3cc(-c4cccc(C(N)=O)c4)no3)c(O[C@H]3CC[C@@H](O)CC3)cc2C1=O", 3.3),
]

# input compound: `NC(=O)c1cccc(-c2cc(-c3ccc(NCC(=O)N4CCS(=O)(=O)CC4)nc3O[C@H]3CC[C@@H](O)CC3)on2)n1` ; wanted: its logP
2.4

====

Below, each entry is listed with its recorded logP.
Measurement Description: Partition coefficient, logP of compound in octanol/water
Assay type: physicochemical
Answer with the value's number alone.

Solved cases (6 shown):
# Chem Smiles, Observed
data = [
    ("CNC(=O)CNc1ccc(-c2cc(-c3cccc(C(N)=O)n3)no2)c(O[C@H]2CC[C@@H](O)CC2)n1", 2.8),
    ("CN(C)C(=O)CNc1ccc(-c2cc(-c3cccc(C(N)=O)n3)no2)c(O[C@H]2CC[C@@H](O)CC2)n1", 3),
    ("CC(=O)Nc1ccc(-c2cc(-c3cccc(C(N)=O)n3)no2)c(O[C@H]2CC[C@@H](O)CC2)n1", 4),
    ("CN(C)C(=O)c1ccc(-c2cc(-c3cccc(C(N)=O)c3)no2)c(O[C@H]2CC[C@@H](O)CC2)n1", 2.8),
    ("COc1ccc(-c2cc(-c3cccc(C(N)=O)n3)no2)c(O[C@H]2CC[C@@H](O)CC2)n1", 4.5),
    ("NC(=O)c1cccc(-c2cc(-c3ccc(N)nc3O[C@H]3CC[C@@H](O)CC3)on2)n1", 3.6),
]

Query (compound): `CN(C)C(=O)c1ccc(-c2cc(-c3cccc(C(N)=O)c3)no2)c(O[C@H]2CC[C@@H](O)CC2)c1` ; field requested: logP
2.8

Attribution: ChEMBL document CHEMBL6083284
